Reference for the values: PubChem BioAssay

Experiment: inhibitors of the yeast RAM network, pilot screen, dse1pr::URA3 reporter, 5-FOA selection (AID 869);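 note: RAM network block rescues cells from 5-FOA so hits raise OD615 growth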
Conditions: S. cerevisiae dse1pr::URA3 5-FOA growth, OD615, 2 d; at 10 µM; active compounds read high; strain carries analog-sensitive mutant Cbk1 kinase
Tick MET if inhibition is 0.9% or greater. Tick NOT MET if inhibition is less than 0.9%.

[
  {
    "Molecule": "Brc1cnc(N2CCCC2)nc1N1CCCCC1",
    "Group label": "MET"
  },
  {
    "Molecule": "CC(C)c1ccc2c(c1)C(=O)NC(C)(C)C2",
    "Group label": "MET"
  },
  {
    "Molecule": "Cc1onc(-c2ccccc2)c1C(=O)Nc1nnc(N2CCCCCC2)s1",
    "Group label": "MET"
  },
  {
    "Molecule": "CC(C)Oc1ccc(N2CC(C(=O)Nc3ccc4c(c3)OCO4)CC2=O)cc1 (stereo unspecified)",
    "Group label": "MET"
  },
  {
    "Molecule": "CCOc1ccc(N2CC(C(=O)NCCC3=CCCCC3)CC2=O)cc1 (stereo unspecified)",
    "Group label": "NOT MET"
  },
  {
    "Molecule": "COc1ccc(NC(=O)c2cc3c(=O)n(C)c4ccccc4c3n2C)cc1OC",
    "Group label": "MET"
  },
  {
    "Molecule": "O=C(NCc1ccc(F)cc1)c1cc2n(n1)C(C(F)(F)F)CC(C1CC1)N2 (stereo unspecified)",
    "Group label": "MET"
  },
  {
    "Molecule": "c1ccc(-c2ccc(-c3nc(-c4cccnc4)no3)cc2)cc1",
    "Group label": "NOT MET"
  },
  {
    "Molecule": "COc1ccc(N(CC(=O)Nc2nccs2)S(=O)(=O)c2c(C)nn(C)c2C)cc1",
    "Group label": "MET"
  },
  {
    "Molecule": "CC(NS(=O)(=O)c1ccc(Br)cc1)C(c1cccs1)N1CCN(C)CC1 (stereo unspecified)",
    "Group label": "NOT MET"
  },
  {
    "Molecule": "O=C1CC(C(=O)Nc2nccs2)C(c2ccccc2)O1 (stereo unspecified)",
    "Group label": "MET"
  }
]
